Task for the reader: assign each of the following compounds its reported Emax.
Assayed Target: human mGlu4 receptor (Homo sapiens)
Construct: expressed in transfected cells; host or cells: HEK-293 (monoclonal, stably transfected)
Sequence (Q14833 33-912): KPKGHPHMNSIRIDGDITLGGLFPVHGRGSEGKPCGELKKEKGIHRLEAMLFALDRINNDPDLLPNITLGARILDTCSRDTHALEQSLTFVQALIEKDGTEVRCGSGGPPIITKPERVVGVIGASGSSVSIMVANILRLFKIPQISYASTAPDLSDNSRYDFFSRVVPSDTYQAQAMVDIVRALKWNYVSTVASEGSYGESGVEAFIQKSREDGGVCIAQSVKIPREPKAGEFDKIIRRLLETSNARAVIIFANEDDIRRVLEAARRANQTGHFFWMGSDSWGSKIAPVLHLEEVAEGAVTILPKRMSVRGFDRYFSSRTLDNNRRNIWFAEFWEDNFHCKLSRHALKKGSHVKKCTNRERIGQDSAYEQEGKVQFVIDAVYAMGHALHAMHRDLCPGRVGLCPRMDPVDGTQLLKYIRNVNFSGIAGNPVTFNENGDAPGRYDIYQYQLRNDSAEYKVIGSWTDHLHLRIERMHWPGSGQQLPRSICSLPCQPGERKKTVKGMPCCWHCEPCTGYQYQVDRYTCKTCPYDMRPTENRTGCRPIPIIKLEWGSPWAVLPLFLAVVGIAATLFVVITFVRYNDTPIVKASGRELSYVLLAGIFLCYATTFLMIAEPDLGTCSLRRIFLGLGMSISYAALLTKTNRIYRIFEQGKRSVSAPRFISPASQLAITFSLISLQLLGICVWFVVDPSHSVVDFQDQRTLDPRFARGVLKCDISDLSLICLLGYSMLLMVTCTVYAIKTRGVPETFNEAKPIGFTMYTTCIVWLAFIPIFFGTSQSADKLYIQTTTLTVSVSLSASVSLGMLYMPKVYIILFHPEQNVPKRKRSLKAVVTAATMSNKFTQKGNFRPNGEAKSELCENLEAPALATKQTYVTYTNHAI
Assay Explanation: Ca2+ mobilization in vitro assay on recombinant human mGlu4 expressed in HEK293 cells (mGlu4 PAM)
Assay type: cell-based
Details: HEK293; maximal response in % of the maximal stimulatory effect obtained with saturating concentrations of L-AP4; read-out: Eff. (%)

Sample records with Emax:
Compound	Emax
CC12CC(=O)N(c3c(F)cc(C#Cc4ccccc4)cc3Cl)C(=O)N1CCNC2=O (racemic) [Example 86]	100%
CCN1C(=O)N(c2c(F)cc(C#Cc3ccccc3)cc2F)C(=O)C[C@@]1(C)c1cccnc1 [Example 52]	99%
CN1C(=O)N(c2c(F)cc(C#Cc3ccccc3)cc2F)C(=O)C2CCCC21C (stereo in doubt) [Example 14]	119%
CN1C(=O)N(c2ccc(C#Cc3ccccc3)cc2Cl)C(=O)CC12CCC2 [Example 5]	93%
CC(C)(C)C1(C)CC(=O)N(c2c(F)cc(C#Cc3ccccc3)cc2F)C(=O)N1 (racemic) [Example 43]	92%
CN1C(=O)N(c2c(F)cc(C#Cc3ccccc3)cc2F)C(=O)C[C@@]1(C)c1ccnc(Cl)c1 [Example 60]	113%
CN1C(=O)N(c2ccc(C#Cc3ccccc3)cc2Cl)C(=O)CC1(C)C [Example 2]	107%
COc1cccc(C2(C)CC(=O)N(c3c(F)cc(C#Cc4cccnc4)cc3F)C(=O)N2C)c1 (racemic) [Example 42]	116%

Batch lookup, Emax per entry.
1. CN1C(=O)N(c2c(F)cc(C#Cc3ccccc3)cc2F)C(=O)C[C@@]1(C)c1cccnc1 [Example 49]
2. COc1cc([C@]2(C)CC(=O)N(c3c(F)cc(C#Cc4ccccc4)cc3F)C(=O)N2C)ccn1 [Example 73]
3. CN1C(=O)N(c2c(F)cc(C#Cc3ccccc3)cc2F)C(=O)C[C@@]1(C)c1ccc(=O)n(C)c1 [Example 66]
4. COc1ccc([C@]2(C)CC(=O)N(c3c(F)cc(C#Cc4ccccc4)cc3F)C(=O)N2C)cn1 [Example 63]
5. CN1C(=O)N(c2c(F)cc(C#Cc3cccnc3)cc2F)C(=O)CC1(C)c1ccc(Cl)cc1 (racemic) [Example 41]
6. CN1C(=O)N(c2c(F)cc(C#Cc3cccnc3)cc2Cl)C(=O)CC1(C)C [Example 9]
7. CN1C(=O)N(c2c(F)cc(C#Cc3ccccc3)cc2F)C(=O)CC12CCOC2 (racemic) [Example 12]
8. O=C1CC2COCCN2C(=O)N1c1c(F)cc(C#Cc2ccccc2)cc1F (racemic) [Example 8]

Result:
1. 98%
2. 120%
3. 114%
4. 109%
5. 115%
6. 110%
7. 115%
8. 107%

Batch lookup, Emax per entry.
1. CN1C(=O)N(c2ccc(C#Cc3ccccc3)cc2Cl)C(=O)CC1(C)c1cccnc1 (racemic) [Example 47]
2. COc1ncc([C@]2(C)CC(=O)N(c3c(F)cc(C#Cc4ccccc4)cc3F)C(=O)N2C)cn1 [Example 79]
3. CN1C(=O)N(c2c(F)cc(C#Cc3cccnc3)cc2F)C(=O)C[C@@]1(C)c1cccnc1 [Example 53]
4. CN1C(=O)N(c2c(F)cc(C#Cc3cccnc3)cc2F)C(=O)CC1(c1ccccc1)C(F)(F)F (racemic) [Example 72]
5. CN1C(=O)N(c2ccc(C#Cc3ccccc3)cn2)C(=O)CC1(C)c1ccccc1 (racemic) [Example 23]

Result:
121%
105%
110%
91%
126%

Sourced from patent US9725416B2
